Data credit: ChEMBL document CHEMBL1201862

Listed compounds paired with reported GI50
tested on: 786-0; experiment: NCI tumour cell line growth inhibition, 48 h
Activity calls are given as the source filed them. Rule as the data show it: active = GI50 up to about 1.1 µM and inactive = higher.

- O=C1/C(=C/c2c(Cl)[nH]c3ccccc23)c2ccccc2N1c1ccccc1: 6.56 µM (inactive)
- COC(=O)[C@@]12C(=O)CCC(=O)C1C1C(=CC2C)O[C@@H]2OC3(CCCCC3)O[C@H]12 (some centres undefined): > 83.6 µM (inactive)
- Cc1ccc([N+](=O)[O-])cc1S(=O)(=O)Nc1ccc(C2=NN(C(=O)c3ccccc3)C(c3ccccc3)C2)cc1 (centres undefined): 17.4 µM (inactive)
- CNc1ccc(C(=O)CC(O)CCC(C)C2OC(=O)CC(O)CC(=O)CC(O)CC(O)CC(O)CC(O)CC3(O)CC(O)C(C(=O)NCCN(C)C)C(CC(OC4OC(C)C(O)C(NC(=O)CN5CCN(C)CC5)C4O)\C=C/C=C\C=C/C=C/C=C/C=C\C=C/C2C)O3)cc1 (centres undefined): 12.9 µM (inactive)
- COc1ccc2c(c1)[C@@]13CCN4CC5=CCO[C@H]6CC(=O)N2[C@H]1[C@H]6[C@H]5C[C@H]43: > 100 µM (inactive)

GI50 for 786-0 with input O=C1NC2OC(CO)C(O)C(O)C2O1 (centres undefined) equals > 100 µM (inactive)

GI50 for 786-0 with input C1CN(c2nnc(N3CCC3)nn2)C1 equals 34.8 µM (inactive)

GI50 for 786-0 with input CN(C)c1ccc(C2CC(c3ccc4ccccc4c3O)=NN2)cc1 (centres undefined) equals 21.9 µM (inactive)

GI50 for 786-0 with input COCOc1cc(OC)ccc1C/C=N/O equals > 100 µM (inactive)

GI50 for 786-0 with input O=C(CCN1CCCCC1CO)Nc1ccc2c(c1)C(=O)c1ccc(NC(=O)CCN3CCCCC3CO)cc1C2=O (centres undefined) equals 1.98 µM (inactive)

GI50 for 786-0 with input COc1ccc(/C=C2\C[C@H]3[C@@H]4CC=C5C[C@@H](OC(C)=O)CC[C@]5(C)[C@H]4CC[C@]3(C)\C2=N\O)cc1OC equals 8.87 µM (inactive)

GI50 for 786-0 with input COc1cc2c(c3c1C=CCO3)C(=O)c1ccccc1C2=O equals 57.7 µM (inactive)

GI50 for 786-0 with input COc1ccc2c(c1)c1c(n2CCN2CCCCC2)-c2cccc(OC)c2CC1 equals 20.2 µM (inactive)

GI50 for 786-0 with input CC(CC(C)(C)[N+](C)(C)C)[N+](C)(C)C (centres undefined) equals > 100 µM (inactive)

GI50 for 786-0 with input CCOC(=O)C(NS(=O)(=O)c1ccccc1)(C(F)(F)F)P(=O)(OCC(C)C)OCC(C)C (centres undefined) equals > 100 µM (inactive)

GI50 for 786-0 with input Cc1ccc2c(c1)nc1n2C(c2c(F)cccc2F)SC1 (centres undefined) equals 32 µM (inactive)

GI50 for 786-0 with input CCCCCCC(CCl)c1sc(-c2csc(CCNC(=O)OC(C)(C)C)n2)nc1C(=O)OC (centres undefined) equals 19.3 µM (inactive)

GI50 for 786-0 with input O=C1c2ccccc2C(=O)N1/N=C\c1ccc(Br)cc1 equals > 10 µM (inactive)

GI50 for 786-0 with input CC1=NN(c2ccccc2)C(=O)/C1=C\c1c(C)[nH]n(-c2ccccc2)c1=O equals > 100 µM (inactive)
